Below is a list of entries, each paired with its recorded inhibition at 10 µM value.
# Tested on: MDA-MB-231
# experimental.protocol: Growth inhibition of human MDA-MB-231 cells at 10 uM after 72 hrs by luminescence assay
# Type: functional
# condition.label: MDA-MB-231, 72 h
reported.endpoint: inhibition at 10 µM

smi=COC(=O)[C@H]1Cc2c([nH]c3ccccc23)[C@@H](c2ccc(Cl)cc2Cl)N1 reported_endpoint="inhibition at 10 µM" experimental_value=29%
smi=CC(C)(C)N1CC(=O)N2[C@H](c3ccc(Cl)cc3Cl)c3[nH]c4ccccc4c3C[C@H]2C1=O reported_endpoint="inhibition at 10 µM" experimental_value=30%
smi=CC(C)(C)N1C(=O)[C@H]2Cc3c([nH]c4ccccc34)[C@@H](c3c(Cl)cccc3Cl)N2C1=O reported_endpoint="inhibition at 10 µM" experimental_value=38%
smi=CCN1C(=O)[C@H]2Cc3c([nH]c4ccccc34)[C@H](c3ccc(Cl)cc3Cl)N2C1=O reported_endpoint="inhibition at 10 µM" experimental_value=54%
smi=CCN1C(=O)[C@@H]2Cc3c([nH]c4ccccc34)[C@H](c3c(Cl)cccc3Cl)N2C1=O reported_endpoint="inhibition at 10 µM" experimental_value=52%
smi=CC(C)(C)N1C(=O)[C@@H]2Cc3c([nH]c4ccccc34)[C@H](c3c(Cl)cccc3Cl)N2C1=O reported_endpoint="inhibition at 10 µM" experimental_value=15%
smi=CC(C)(C)N1C(=O)[C@H]2Cc3c([nH]c4ccccc34)[C@@H](c3ccc(Cl)c(Cl)c3)N2C1=O reported_endpoint="inhibition at 10 µM" experimental_value=99%
smi=CCN1C(=O)[C@H]2Cc3c([nH]c4ccccc34)[C@@H](c3ccc(Cl)c(Cl)c3)N2C1=O reported_endpoint="inhibition at 10 µM" experimental_value=50%

====

Below is a list of entries, each paired with its recorded IC50 value.
# Test system: MDA-MB-231
# experimental.protocol: Growth inhibition of human MDA-MB-231 cells after 72 hrs by luminescence assay
# Assay type: functional, cell-based
# condition.label: MDA-MB-231, 72 h
reported.endpoint: IC50 (µM)

smi=CCN1CC(=O)N2[C@@H](c3ccc(Cl)cc3Cl)c3[nH]c4ccccc4c3C[C@@H]2C1=O reported_endpoint=IC50 experimental_value=1.54
smi=COC(=O)[C@H]1Cc2c([nH]c3ccccc23)[C@@H](c2ccc(Cl)cc2Cl)N1C(=O)CCl reported_endpoint=IC50 experimental_value=0.56
smi=CC(C)(C)N1CC(=O)N2[C@@H](c3ccc(Cl)cc3Cl)c3[nH]c4ccccc4c3C[C@@H]2C1=O reported_endpoint=IC50 experimental_value=2.92
smi=COC(=O)[C@H]1Cc2c([nH]c3ccccc23)[C@H](c2ccc(Cl)c(Cl)c2)N1 reported_endpoint=IC50 experimental_value=4.62
smi=CCCCN1CC(=O)N2[C@@H](c3ccc(Cl)cc3Cl)c3[nH]c4ccccc4c3C[C@H]2C1=O reported_endpoint=IC50 experimental_value=3.28
smi=COC(=O)[C@H]1Cc2c([nH]c3ccccc23)[C@H](c2ccc(Cl)cc2Cl)N1C(=O)CCl reported_endpoint=IC50 experimental_value=0.07
smi=COC(=O)[C@@H]1Cc2c([nH]c3ccccc23)[C@@H](c2ccc(Cl)cc2Cl)N1C(=O)CCl reported_endpoint=IC50 experimental_value=1.24
smi=CC(C)(C)N1C(=O)[C@H]2Cc3c([nH]c4ccccc34)[C@@H](c3ccc(Cl)cc3Cl)N2C1=O reported_endpoint=IC50 experimental_value=2.26

====

# measured.on: cGMP-specific 3',5'-cyclic phosphodiesterase (Homo sapiens, UniProt O76074)
# experimental.protocol: Inhibition of human recombinant PDE5 after 30 mins by fluorescence polarization assay
reported.endpoint: log10(IC50) (log10 of the value in nM)

smi=CC(C)(C)N1CC(=O)N2[C@H](c3ccc(Cl)cc3Cl)c3[nH]c4ccccc4c3C[C@@H]2C1=O reported_endpoint=log10(IC50) experimental_value=2.28
smi=CC(C)(C)N1C(=O)[C@H]2Cc3c([nH]c4ccccc34)[C@@H](c3ccc(Cl)c(Cl)c3)N2C1=O reported_endpoint=log10(IC50) experimental_value=3.27
smi=CN1CC(=O)N2[C@@H](c3ccc(Cl)cc3Cl)c3[nH]c4ccccc4c3C[C@H]2C1=O reported_endpoint=log10(IC50) experimental_value=2.93
smi=CC(C)(C)N1C(=O)[C@@H]2Cc3c([nH]c4ccccc34)[C@H](c3ccc(Cl)c(Cl)c3)N2C1=O reported_endpoint=log10(IC50) experimental_value=3.36
smi=CN1CC(=O)N2[C@@H](c3ccc(Cl)cc3Cl)c3[nH]c4ccccc4c3C[C@@H]2C1=O reported_endpoint=log10(IC50) experimental_value=3.08
smi=CCN1C(=O)[C@@H]2Cc3c([nH]c4ccccc34)[C@H](c3ccc(Cl)c(Cl)c3)N2C1=O reported_endpoint=log10(IC50) experimental_value=3.94
smi=CN1CC(=O)N2[C@H](c3ccc(Cl)cc3Cl)c3[nH]c4ccccc4c3C[C@H]2C1=O reported_endpoint=log10(IC50) experimental_value=1.70
smi=CCN1C(=O)[C@@H]2Cc3c([nH]c4ccccc34)[C@@H](c3ccc(Cl)cc3Cl)N2C1=O reported_endpoint=log10(IC50) experimental_value=0.85
smi=CCCCN1CC(=O)N2[C@H](c3ccc(Cl)cc3Cl)c3[nH]c4ccccc4c3C[C@H]2C1=O reported_endpoint=log10(IC50) experimental_value=2.46
smi=CC(C)(C)N1C(=O)[C@@H]2Cc3c([nH]c4ccccc34)[C@@H](c3ccc(Cl)c(Cl)c3)N2C1=O reported_endpoint=log10(IC50) experimental_value=1.08
smi=COC(=O)[C@H]1Cc2c([nH]c3ccccc23)[C@@H](c2ccc(Cl)cc2Cl)N1C(=O)CCl reported_endpoint=log10(IC50) experimental_value=3.36
smi=CCN1CC(=O)N2[C@H](c3ccc(Cl)c(Cl)c3)c3[nH]c4ccccc4c3C[C@H]2C1=O reported_endpoint=log10(IC50) experimental_value=3.31
smi=COC(=O)[C@H]1Cc2c([nH]c3ccccc23)[C@@H](c2ccc(Cl)cc2Cl)N1 reported_endpoint=log10(IC50) experimental_value=3.86
smi=CCN1CC(=O)N2[C@H](c3ccc(Cl)cc3Cl)c3[nH]c4ccccc4c3C[C@@H]2C1=O reported_endpoint=log10(IC50) experimental_value=0.30
smi=CCN1CC(=O)N2[C@H](c3ccc(Cl)c(Cl)c3)c3[nH]c4ccccc4c3C[C@@H]2C1=O reported_endpoint=log10(IC50) experimental_value=3.13
smi=CC(C)(C)N1CC(=O)N2[C@@H](c3ccc(Cl)cc3Cl)c3[nH]c4ccccc4c3C[C@H]2C1=O reported_endpoint=log10(IC50) experimental_value=3.13
smi=CC(C)(C)N1C(=O)[C@H]2Cc3c([nH]c4ccccc34)[C@@H](c3ccc(Cl)cc3Cl)N2C1=O reported_endpoint=log10(IC50) experimental_value=2.77
smi=CC(C)(C)N1C(=O)[C@H]2Cc3c([nH]c4ccccc34)[C@H](c3ccc(Cl)c(Cl)c3)N2C1=O reported_endpoint=log10(IC50) experimental_value=3.80
smi=CCN1C(=O)[C@H]2Cc3c([nH]c4ccccc34)[C@@H](c3ccc(Cl)cc3Cl)N2C1=O reported_endpoint=log10(IC50) experimental_value=1.00
smi=CC(C)(C)N1CC(=O)N2[C@@H](c3ccc(Cl)cc3Cl)c3[nH]c4ccccc4c3C[C@@H]2C1=O reported_endpoint=log10(IC50) experimental_value=3.10
smi=CCCCN1CC(=O)N2[C@H](c3ccc(Cl)cc3Cl)c3[nH]c4ccccc4c3C[C@@H]2C1=O reported_endpoint=log10(IC50) experimental_value=2.43
smi=CC(C)(C)N1CC(=O)N2[C@H](c3ccc(Cl)cc3Cl)c3[nH]c4ccccc4c3C[C@H]2C1=O reported_endpoint=log10(IC50) experimental_value=2.41
smi=CCCCN1CC(=O)N2[C@@H](c3ccc(Cl)cc3Cl)c3[nH]c4ccccc4c3C[C@@H]2C1=O reported_endpoint=log10(IC50) experimental_value=3.05
smi=CC(C)(C)N1C(=O)[C@@H]2Cc3c([nH]c4ccccc34)[C@H](c3ccc(Cl)cc3Cl)N2C1=O reported_endpoint=log10(IC50) experimental_value=3.62
smi=COC(=O)[C@@H]1Cc2c([nH]c3ccccc23)[C@@H](c2ccc(Cl)cc2Cl)N1 reported_endpoint=log10(IC50) experimental_value=2.76
smi=CCN1CC(=O)N2[C@@H](c3ccc(Cl)cc3Cl)c3[nH]c4ccccc4c3C[C@@H]2C1=O reported_endpoint=log10(IC50) experimental_value=2.41
smi=CCN1CC(=O)N2[C@@H](c3ccc(Cl)cc3Cl)c3[nH]c4ccccc4c3C[C@H]2C1=O reported_endpoint=log10(IC50) experimental_value=3.00
smi=COC(=O)[C@H]1Cc2c([nH]c3ccccc23)[C@@H](c2ccc(Cl)c(Cl)c2)N1 reported_endpoint=log10(IC50) experimental_value=3.21
smi=CCN1C(=O)[C@@H]2Cc3c([nH]c4ccccc34)[C@H](c3ccc(Cl)cc3Cl)N2C1=O reported_endpoint=log10(IC50) experimental_value=2.93
smi=CCN1C(=O)[C@H]2Cc3c([nH]c4ccccc34)[C@H](c3ccc(Cl)c(Cl)c3)N2C1=O reported_endpoint=log10(IC50) experimental_value=3.46
smi=CC(C)(C)N1C(=O)[C@H]2Cc3c([nH]c4ccccc34)[C@H](c3ccc(Cl)cc3Cl)N2C1=O reported_endpoint=log10(IC50) experimental_value=3.17
smi=CN1CC(=O)N2[C@H](c3ccc(Cl)cc3Cl)c3[nH]c4ccccc4c3C[C@@H]2C1=O reported_endpoint=log10(IC50) experimental_value=1.70
smi=CCCCN1CC(=O)N2[C@@H](c3ccc(Cl)cc3Cl)c3[nH]c4ccccc4c3C[C@H]2C1=O reported_endpoint=log10(IC50) experimental_value=3.65
smi=CCN1C(=O)[C@H]2Cc3c([nH]c4ccccc34)[C@H](c3ccc(Cl)cc3Cl)N2C1=O reported_endpoint=log10(IC50) experimental_value=1.95
